Data origin, for the record: PubChem BioAssay

assay.summary: PSAC antagonists in infected red cells, primary screen, cell-based, P. falciparum Indochina, OD700, 1 h (AID 1154)
experimental.parameters: P. falciparum Indochina infected RBC osmotic lysis, higher = more signal, called active from +8 up or from −8 down
# z-score >= 2 gives satisfied, anything below gives not satisfied

Consider the worked cases shown below.
Q: Decide: z-score of "COCCOC(=O)N1C(=O)[C@@]2(c3ccccc31)[C@H](C(=O)N1CCc3cc(OC)c(OC)cc3C1)[C@H]1C(=O)O[C@H](c3ccccc3)[C@H](c3ccccc3)N1[C@@H]2c1ccc(OCCO)cc1" >= 2?
Result: satisfied

Q: Decide: z-score of "CCOC(=O)C[C@H]1[C@H](OC(=O)c2ccc(C(=O)c3ccccc3)cc2)[C@@H](NC(=O)c2ccc3ccccc3n2)c2cc(OCCCO)ccc2N1C(=O)c1ccccc1" >= 2?
Result: not satisfied

Q: Decide: z-score of "COCCCNC(=O)[C@@]1(C)c2ccccc2C(=O)N(C(C)C)[C@H]1c1ccc(CO)cc1" >= 2?
Result: not satisfied

***
Q: Decide: z-score of CC1CC/C=C\[C@H]2OC34C=CCN(Cc5ccccc5)C(=O)[C@H]3N(CCCO)C(=O)[C@@H]4C2C(=O)O1 (some centres not stated) >= 2?
Result: not satisfied

Q: Decide: z-score of CC(=O)n1cc(C(O)C2C=CC3C(=O)N(c4ccccc4)C(=O)C3N2Nc2ccc([N+](=O)[O-])cc2)c2ccccc21 (configuration not stated) >= 2?
Result: satisfied

Q: Decide: z-score of "COc1ccccc1CN1C(=O)c2ccccc2[C@@H](C(=O)NC2CC2)[C@@H]1c1ccc(CO)cc1" >= 2?
Result: satisfied

Q: Decide: z-score of "CC(C)N1C(=O)c2ccccc2[C@](C)(C(=O)NCCN2CCOCC2)[C@@H]1c1ccc(CO)cc1" >= 2?
Result: satisfied
